# Test system: A. baumannii 14B00100 (Acinetobacter sp., BCRC number 14B0100)
# CONDITION_SUMMARY: MH broth; 5 × 10^5 CFU/mL, 16 h, 37 °C; repeated three times
Examples of substances with documented MIC follow.

SUBSTANCE: Ac-AKKKKWRKWLKWL-NH2 [Peptide W5K10]
VALUE_UNIT: µg/mL
VALUE_PREFIX: =
MIC: 3.13
//
SUBSTANCE: Ac-LAKKKKWRKWLKW-NH2 [Peptide W5K09]
VALUE_UNIT: µg/mL
VALUE_PREFIX: =
MIC: 50
//
SUBSTANCE: Ac-RKWLKWLAKKKKW-NH2 [Peptide W5K03]
VALUE_UNIT: µg/mL
VALUE_PREFIX: =
MIC: 12.5
//
SUBSTANCE: Ac-KKKKWRKWLKWLA-NH2 [Peptide W5K11]
VALUE_UNIT: µg/mL
VALUE_PREFIX: =
MIC: 1.56
//
SUBSTANCE: Ac-WLAKKKKWRKWLK-NH2 [Peptide W5K08]
VALUE_UNIT: µg/mL
VALUE_PREFIX: >
MIC: 50
//
SUBSTANCE: Ac-KWLKWLAKKKKWR-NH2 [Peptide W5K04]
VALUE_UNIT: µg/mL
VALUE_PREFIX: =
MIC: 12.5
//
SUBSTANCE: Ac-KKWRKWLKWLAKK-NH2 [W5K/A9W]
VALUE_UNIT: µg/mL
VALUE_PREFIX: =
MIC: 1.56
